Provide the recorded log10(IC50) for the entries that follow.
TARGET_ENTITY: UniProtKB P12527
Sequence (P12527 whole entry): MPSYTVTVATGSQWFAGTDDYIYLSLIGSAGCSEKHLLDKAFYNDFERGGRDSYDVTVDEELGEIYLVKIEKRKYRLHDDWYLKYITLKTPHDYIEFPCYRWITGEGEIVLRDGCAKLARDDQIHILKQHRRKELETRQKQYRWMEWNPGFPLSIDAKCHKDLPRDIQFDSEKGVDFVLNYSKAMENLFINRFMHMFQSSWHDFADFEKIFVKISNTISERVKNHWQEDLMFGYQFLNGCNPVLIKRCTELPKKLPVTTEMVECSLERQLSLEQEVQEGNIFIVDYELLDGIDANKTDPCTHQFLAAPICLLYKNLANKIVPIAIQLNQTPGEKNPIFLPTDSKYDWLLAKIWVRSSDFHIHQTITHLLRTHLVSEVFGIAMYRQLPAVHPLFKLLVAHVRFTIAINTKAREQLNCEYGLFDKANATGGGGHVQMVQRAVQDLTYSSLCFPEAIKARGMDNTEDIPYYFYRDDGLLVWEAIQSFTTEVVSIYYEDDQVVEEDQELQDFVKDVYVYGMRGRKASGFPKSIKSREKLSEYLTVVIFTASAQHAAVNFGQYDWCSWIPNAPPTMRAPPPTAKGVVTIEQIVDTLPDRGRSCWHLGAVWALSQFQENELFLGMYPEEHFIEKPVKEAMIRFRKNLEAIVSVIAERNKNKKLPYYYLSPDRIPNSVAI
TEST_SUMMARY: Evaluated in vitro for its inhibitory activity against 5-lipoxygenase
Kindly note that the scale is log10 and the underlying IC50 is in µM.

Request: // fetch log10(IC50) for CC(C)(C)c1cc(-c2nc(=S)o[nH]2)cc(C(C)(C)C)c1O ; system: UniProtKB P12527
Response: 0.53

Request: // fetch log10(IC50) for CC(C)(C)c1cc(-c2noc(N)n2)cc(C(C)(C)C)c1O ; system: UniProtKB P12527
Response: 0.40

Request: // fetch log10(IC50) for CC(C)(C)c1cc(C2CCOC2=O)cc(C(C)(C)C)c1O (stereo not drawn) ; system: UniProtKB P12527
Response: 0.40

Request: // fetch log10(IC50) for Cc1noc(-c2cc(C(C)(C)C)c(O)c(C(C)(C)C)c2)n1 ; system: UniProtKB P12527
Response: 0.52

Request: // fetch log10(IC50) for CN(C)Cc1nc(-c2cc(C(C)(C)C)c(O)c(C(C)(C)C)c2)no1.Cl ; system: UniProtKB P12527
Response: 0.89

Request: // fetch log10(IC50) for CC(C)(C)c1cc(-c2nsc(CN)n2)cc(C(C)(C)C)c1O.Cl ; system: UniProtKB P12527
Response: 0.41

Request: // fetch log10(IC50) for CN(C)Cc1noc(-c2cc(C(C)(C)C)c(O)c(C(C)(C)C)c2)n1.Cl ; system: UniProtKB P12527
Response: 0.83

Request: // fetch log10(IC50) for C/N=C(\N)Nc1nc(-c2cc(C(C)(C)C)c(O)c(C(C)(C)C)c2)ns1.Cl ; system: UniProtKB P12527
Response: -0.43

Request: // fetch log10(IC50) for CC(C)(C)c1cc(-c2nsc(N=C(N)N)n2)cc(C(C)(C)C)c1O.Cl ; system: UniProtKB P12527
Response: -0.85

Request: // fetch log10(IC50) for CC(C)(C)c1cc(-c2nc(N)no2)cc(C(C)(C)C)c1O ; system: UniProtKB P12527
Response: 0.56

Request: // fetch log10(IC50) for CC(C)(C)c1cc(-c2nsc(N)n2)cc(C(C)(C)C)c1O ; system: UniProtKB P12527
Response: -0.48

Request: // fetch log10(IC50) for CC(C)(C)c1cc(-c2noc(N=C(N)N)n2)cc(C(C)(C)C)c1O.CS(=O)(=O)O ; system: UniProtKB P12527
Response: 0.23

Request: // fetch log10(IC50) for CSC(=N)Nc1nc(-c2cc(C(C)(C)C)c(O)c(C(C)(C)C)c2)ns1.Cl ; system: UniProtKB P12527
Response: 0.08

###

Tested on: Rattus norvegicus
TEST_SUMMARY: Evaluated for the antiinflammatory activity by measuring the percentage inhibition of edema in the carrageenan foot-pad edema test at the dose of 10 mg/kg
Type: functional
Entry flag: label 1 if inhibition in vivo at 10 mg/kg reaches 40%; label 0 if it does not.

Request: I'd appreciate it if you could say whether Cc1ccc(Cl)c(Nc2ccccc2C(=O)[O-])c1Cl.O.[Na+] [MECLOFENAMATE SODIUM] has inhibition in vivo at 10 mg/kg at least equal to 40%.
Response: label 0

Request: I'd appreciate it if you could say whether CC(C)(C)c1cc(-c2nc(N)no2)cc(C(C)(C)C)c1O has inhibition in vivo at 10 mg/kg at least equal to 40%.
Response: label 1

Request: I'd appreciate it if you could say whether CC(C)(C)c1cc(-c2nsc(N=C(N)N)n2)cc(C(C)(C)C)c1O.Cl has inhibition in vivo at 10 mg/kg at least equal to 40%.
Response: label 1

Request: I'd appreciate it if you could say whether C/N=C(\N)Nc1nc(-c2cc(C(C)(C)C)c(O)c(C(C)(C)C)c2)ns1.Cl has inhibition in vivo at 10 mg/kg at least equal to 40%.
Response: label 0

Request: I'd appreciate it if you could say whether CC(C)(C)c1cc(-c2nc(NC=O)no2)cc(C(C)(C)C)c1O has inhibition in vivo at 10 mg/kg at least equal to 40%.
Response: label 1
